Items are presented alongside their recorded IC50.
# target.desc: human CYP17 in H295R adrenocortical carcinoma cells (Homo sapiens, UniProt P05093)
# Construct: H295R Adrenocortical carcinoma cells [NCI-H295A, ATCC Number CRL-2128, American Type Culture Collection
# assay.method.text: Cell-based human CYP17 inhibition assay, H295R cells
# particulars: 16 hours, read-out: CYP17 (human H295R adrenal cells)
# Method: Cell-Based Human CYP17 Inhibition Assay 1. H295R Adrenocortical Carcinoma Cells and Growth Media: The media for the H295R Adrenocortical carcinoma cells [NCI-H295A, ATCC Number CRL-2128, American Type Culture Collection, Manassas, Va., US] […] The plates were incubated overnight (16 hours) at 37° C. […] Following the incubation for 30 minutes, readings for the radiotracer were taken using a Microbeta® trilux.

CC(O)(c1ccncc1)c1cnc(-c2ccccc2)s1 (centres unmarked) :: < 50 nM
CC(O)(c1ccncc1)c1ncc(-c2ccc(F)cc2)s1 (single isomer, unassigned; (+)) [Example 55] :: 50 to 200 nM
CC(O)(c1ccncc1)c1nnc(-c2ccc(F)cc2)o1 (centres unmarked) :: 201 to 10000 nM

So what's the measured IC50 for this one? CC(O)(c1ccncc1)c1ccc(-c2ccc(F)cc2)cn1 (centres unmarked)
201 to 10000 nM

Try CC(C)CC(O)(c1ccncc1)c1cnc(-c2ccc(F)cc2)s1 (centres unmarked) next.
< 50 nM
